# target-or-test-system: T1, Full length PLXDC1 (PLXDC1-Full) (Homo sapiens (Human), UniProt Q8IUK5 19-500)
# T1 construct: also called full PLXDC1 protein
# T1 sequence: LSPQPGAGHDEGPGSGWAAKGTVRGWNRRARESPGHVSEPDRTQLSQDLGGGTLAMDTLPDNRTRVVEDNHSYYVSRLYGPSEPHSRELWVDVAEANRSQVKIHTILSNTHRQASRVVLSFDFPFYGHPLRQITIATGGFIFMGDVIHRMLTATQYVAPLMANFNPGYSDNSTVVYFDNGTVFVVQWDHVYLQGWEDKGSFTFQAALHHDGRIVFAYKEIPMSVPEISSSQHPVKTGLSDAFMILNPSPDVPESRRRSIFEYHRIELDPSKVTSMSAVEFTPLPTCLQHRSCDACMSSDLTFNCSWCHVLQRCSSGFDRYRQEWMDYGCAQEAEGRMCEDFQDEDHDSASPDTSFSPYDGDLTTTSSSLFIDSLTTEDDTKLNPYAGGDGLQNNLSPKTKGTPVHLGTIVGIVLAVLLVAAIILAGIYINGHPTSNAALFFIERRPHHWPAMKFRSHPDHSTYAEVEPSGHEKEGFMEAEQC
# assay-notes: staining of transfected cells (FIG. 3-4)
parameter: binding result

• A001 (antibody, V domains shown, VH/VL only; also called 3-C11) VH: EVQLLESGGGLVQPGGSLRLSCAASGFTFSSYAMSWVRQAPGKGLEWVSTIYASGATTYYADSVKGRFTISRDNSKNTLYLQMNSLRAEDTAVYYCARLKLYHAAFDIWGQGTLVTVSS VL: DIQMTQSPSSLSASVGDRVTITCRASQDISSYLNWYQQKPGKAPKLLIYTASSLQSGVPSRFSGSGSGTDFTLTISSLQPEDFATYYCQQSYSYPLTFGQGTKVEIK = binds
• A004 (antibody, V domains shown, VH/VL only; also called 2-H2) VH: QVQLVESGGGVVQPGRSLRLSCAASGFTFSDYGMHWVRQAPGKGLEWVAVISYEGSNEYYADSVKGRFTISRDNSKNTLYLQMNSLRAEDTAVYYCARGSEGSGFDVWGQGTLVTVSS VL: DIQMTQSPSSLSASVGDRVTITCRASQRISNYLNWYQQKPGKAPKLLIYAASSLQSGVPSRFSGSGSGTDFTLTISSLQPEDFATYYCQQSYSPPYTFGQGTKVEIK = binds
• A005 (antibody, V domains shown, VH/VL only; also called 3-G6) VH: QVQLVESGGGVVQPGRSLRLSCAASGFTFSDYGMHWVRQAPGKGLEWVAVISYDGSRKYYANSVKGRFTISRDNSKNTLYLQMNSLRAEDTAVYYCARGSYSDGFDVWGQGTLVTVSS VL: DIQMTQSPSSLSASVGDRVTITCRASQSISRYLNWYQQKTGKAPKLLIYGASSLQSGVPSRFSGSGSGTDFTLTISSLQPEDFATYYCQQSYSTPYTFGQGTKVEIK = binds
